Answer each item with its documented interaction score.
Target: T1, 4H796-bA
T1 chain: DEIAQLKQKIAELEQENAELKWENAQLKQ
Experiment: two-hybrid library CCNG1;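 further: natural log of median RNA to DNA barcode read ratio; higher means stronger binding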

For the binder shown here, DKIAQLKQKNAELKQKIAELEWEIAQLEQ [4H3041-bA] , give the reported interaction score.
-1.16

For the binder shown here, DKNAQLEQENAELKQKIAELEWEIAQLEQ [4H3297-bA] , give the reported interaction score.
-1.18

For the binder shown here, DKIAQLEQENAELKQEIAELKWKIAQLEQ [4H2253-bA] , give the reported interaction score.
-1.65

As a next step, examine the binder that follows.
For the binder shown here, DEIAQLEQKIAELKQENAELKWKIAQLEQ [4H349-bA] , give the reported interaction score.
-0.458
